System: 266295-075-R-J1-PDC spheroid viability;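 note: spheroids exposed to compounds for seven days before readout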
Assay: Anticancer human tumor 266295-075-R-J1-PDC patient-derived head and neck squamous carcinoma cell line growth inhibition [POLQ]
Details: second compound 0.0316 µM; first compound 0.316 µM; hits give low values; spheroids with HUVEC and MSC
Method: Multicellular complex tumor spheroid response to Polymerase (POL) inhibitors (novobiocin, ART-558, RP6685) in combination with a variety of drugs and investigational agents in selected tumor cell lines The POL inhibitors (novobiocin, ART-558, and RP6685) were evaluated both individually and in combination with standard of care and investigational anticancer small molecules within a complex spheroid model of solid tumors. . […]
TEST READOUT: viability, T/C (%)
Value expressed in %; do not type the unit.

Use these answered entries as a reference point.
MOLECULE	UNIT NAME	READOUT VALUE
Nc1ccn(C2OC(CO)C(O)C2(F)F)c(=O)n1 (stereo not given) + Nc1ccc(C#CCN(C(=O)Cc2ncc(C(F)(F)F)cc2C(F)(F)F)c2ccc(F)cc2)nn1	%	81.6
COc1cccc2c1C(=O)c1c(O)c3c(c(O)c1C2=O)CC(O)(C(=O)CO)CC3OC1CC(N)C(O)C(C)O1 (stereo not given) + Nc1ccc(C#CCN(C(=O)Cc2ncc(C(F)(F)F)cc2C(F)(F)F)c2ccc(F)cc2)nn1	%	74.4
COc1cccc(OCCCN)c1-c1cc(Nc2cnc(C#N)cn2)n[nH]1 + Nc1ccc(C#CCN(C(=O)Cc2ncc(C(F)(F)F)cc2C(F)(F)F)c2ccc(F)cc2)nn1	%	64.5
CCCS(=O)(=O)Nc1ccc(F)c(C(=O)c2c[nH]c3ncc(-c4ccc(Cl)cc4)cc23)c1F + Nc1ccc(C#CCN(C(=O)Cc2ncc(C(F)(F)F)cc2C(F)(F)F)c2ccc(F)cc2)nn1	%	115

Switching to the query record.
Fill blank: measured viability, T/C of the molecule COc1ccc([C@@H](O)c2cc(-c3ncnc4cc(N5CCOCC5)ccc34)c(F)cc2Cl)nn1 + Nc1ccc(C#CCN(C(=O)Cc2ncc(C(F)(F)F)cc2C(F)(F)F)c2ccc(F)cc2)nn1 is ____.
72.4
